protocolDetails: Measurement of LogP values by HPLC on reversed phase columns (EEC directive 79/831 Annex V.A8)
Format: physicochemical
measurementConditions: acidic range, 0.1% formic acid in water and acetonitrile as eluent, read-out: logP (HCOOH)[a]
Decide using chromatographic logP: a value greater than or equal to 4 is Satisfied, a smaller one is Not satisfied.

[
  {
    "inputSmiles": "O=C(NCC(F)(F)c1ccc(-c2ccc(SC(F)(F)F)cc2)cc1Cl)c1ccccc1C(F)(F)F",
    "classification": "Satisfied"
  },
  {
    "inputSmiles": "N#Cc1ccc(-c2ccc(C(F)(F)CNC(=O)c3ccccc3C(F)(F)F)c(Cl)c2)cc1",
    "classification": "Not satisfied"
  },
  {
    "inputSmiles": "Cc1cc(-c2ccc(F)cc2)ccc1C(F)(F)CNC(=O)c1ccccc1C(F)(F)F",
    "classification": "Satisfied"
  },
  {
    "inputSmiles": "O=C(NCC(F)(F)c1ccc(-c2ccc(F)c(F)c2)cc1Cl)c1ccccc1C(F)(F)F",
    "classification": "Satisfied"
  }
]

We next turn to a different molecule, shown below.
Query block: Form field: chromatographic logP at least 4? Entry: `O=C(NCC(F)(F)c1ccc(-c2cc(F)c(F)c(F)c2)cc1Cl)c1ccccc1C(F)(F)F`
Result block: Satisfied
